test system: A498 renal; experiment: NCI tumour cell line growth inhibition, 48 h
Attribute measured: TGI

Ask: Can you look up the measured TGI of COC(=O)C(Cc1c[nH]c2ccccc12)NP(=O)(O)OCC1OC(n2cc(I)c(=O)[nH]c2=O)CC1O (stereo not drawn) for me?
Reply: > 100 µM

Ask: Can you look up the measured TGI of CC1c2c(Cl)nc3ccccc3c2Oc2c1c(Cl)nc1ccccc21 for me?
Reply: > 100 µM

Ask: Can you look up the measured TGI of Clc1ccc2[nH]cc(-c3nnnn3-c3ccccc3)c2c1 for me?
Reply: 36.8 µM

Ask: Can you look up the measured TGI of COc1ccc2[nH]cc(C3(c4c[nH]c5ccc(OC)cc45)C(=O)Nc4ccc(F)cc43)c2c1 for me?
Reply: 12 µM

Ask: Can you look up the measured TGI of Cn1c(=O)n(C2(C)C[Se]C2)c2ccccc21 for me?
Reply: > 100 µM

Ask: Can you look up the measured TGI of COC(=O)c1cc2ccc(N)nc2[nH]c1=O for me?
Reply: > 100 µM

Ask: Can you look up the measured TGI of COC(=O)C1=C(C(=O)NNc2ccccc2)N(c2cccnc2Cl)C(c2ccccc2)=CC1c1ccccc1 (stereo not drawn) for me?
Reply: > 100 µM

Ask: Can you look up the measured TGI of CC(=O)c1sc(Nc2nnc(-c3ccc(-c4nnc(Nc5nc(C)c(C(C)=O)s5)o4)cc3)o2)nc1C for me?
Reply: > 100 µM

Ask: Can you look up the measured TGI of CCCc1nc(NC#N)nc(C(=O)Nc2ccccc2)c1CC for me?
Reply: > 100 µM

Ask: Can you look up the measured TGI of COc1cc2c(c(OC)c1OC)-c1ccc(SC)c(=O)cc1C(NC=O)CC2 (stereo not drawn) for me?
Reply: 1.76 µM

Ask: Can you look up the measured TGI of CN(C)C(n1cc2c(c1)-c1ccc(Cl)cc1C(c1ccccc1F)=NC2)n1cc2c(c1)-c1ccc(Cl)cc1C(c1ccccc1F)=NC2 for me?
Reply: > 100 µM

Ask: Can you look up the measured TGI of COc1ccc(/C=C2/N=C(c3ccccc3)N(c3c(C)n(C)n(-c4ccccc4)c3=O)C2=O)cc1OC for me?
Reply: > 100 µM

Ask: Can you look up the measured TGI of CC1(CCOCc2ccccc2)NC(=O)NC1=O (stereo not drawn) for me?
Reply: > 100 µM

Ask: Can you look up the measured TGI of Cn1cc(C2=C(c3cn(CCCCO)c4ccccc34)C(=O)NC2=O)c2ccccc21 for me?
Reply: 22.2 µM

Ask: Can you look up the measured TGI of COc1cc(C2c3cc4c(cc3OC3(OC)COC(=O)C23)OCO4)cc(OC)c1OC(C)=O (stereo not drawn) for me?
Reply: 97.4 µM

Ask: Can you look up the measured TGI of S=C(S)NCNC(=S)S.[Zn+2] for me?
Reply: > 100 µM

Ask: Can you look up the measured TGI of COc1ccc2c(c1)C(=O)c1c-2c(N2CCN(C(=O)CNCCNCCO)CC2)nc2ccccc12 for me?
Reply: 20.2 µM

Ask: Can you look up the measured TGI of Cc1[nH]c2ccccc2c1C(=O)/C=C/c1ccccc1O for me?
Reply: > 100 µM
